- Assayed Target: UniProt:Q9Y210
- Sequence (Q9Y210 whole entry): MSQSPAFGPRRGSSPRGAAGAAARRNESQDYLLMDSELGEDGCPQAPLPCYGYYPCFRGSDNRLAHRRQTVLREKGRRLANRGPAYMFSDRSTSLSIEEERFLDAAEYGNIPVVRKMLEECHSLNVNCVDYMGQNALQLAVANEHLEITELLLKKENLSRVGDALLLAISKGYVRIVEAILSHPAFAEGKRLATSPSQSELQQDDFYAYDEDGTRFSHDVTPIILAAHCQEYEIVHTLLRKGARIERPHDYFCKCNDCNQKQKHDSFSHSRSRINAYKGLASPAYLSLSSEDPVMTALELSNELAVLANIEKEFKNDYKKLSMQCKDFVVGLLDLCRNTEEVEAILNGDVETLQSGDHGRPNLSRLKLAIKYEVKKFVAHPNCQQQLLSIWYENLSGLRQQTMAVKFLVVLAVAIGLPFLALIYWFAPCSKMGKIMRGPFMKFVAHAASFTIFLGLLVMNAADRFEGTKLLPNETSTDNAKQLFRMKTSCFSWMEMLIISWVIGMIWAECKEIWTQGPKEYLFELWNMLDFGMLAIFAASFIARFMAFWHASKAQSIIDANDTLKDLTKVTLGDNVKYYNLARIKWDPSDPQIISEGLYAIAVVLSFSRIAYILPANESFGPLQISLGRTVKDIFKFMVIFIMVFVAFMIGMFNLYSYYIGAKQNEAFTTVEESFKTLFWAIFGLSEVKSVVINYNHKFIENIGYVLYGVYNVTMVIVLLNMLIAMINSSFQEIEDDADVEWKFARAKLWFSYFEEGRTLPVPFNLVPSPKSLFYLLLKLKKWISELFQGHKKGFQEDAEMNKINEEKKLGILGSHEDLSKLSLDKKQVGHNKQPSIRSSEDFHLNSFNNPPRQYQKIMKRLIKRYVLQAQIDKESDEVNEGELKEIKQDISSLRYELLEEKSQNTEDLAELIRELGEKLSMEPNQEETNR
- Assay Method Text: TRPC6 calcium flux assay (FLIPR, OAG-stimulated calcium influx)
- Run Conditions: HEK293 cells stably transfected with human TRPC6, read-out: hTRPC6 Potency
- Description: Biological Example 1 TRPC6 Calcium Flux Assay Potency of TRPC6 (Transient receptor potential channel family C6) inhibitors were measured by their inhibition of Calcium influx trigged by […] (1-Oleoyl-2-acetyl-sn-glycerol, Millipore Sigma, O6754) stimulation on HEK293 cells stablely transfected with human TRPC6 using a FLIPR tetra system. […]
pIC50: −log10 of the molar value.

| Molecule | Assayed Target | pIC50 |
| --- | --- | --- |
| Cc1nc(C)c(Cn2c(N3CC[C@@H](F)[C@H](N)C3)nc3cc(F)ccc32)s1 [Example 596] | UniProt:Q9Y210 | < 5.43 |
| CC(C)(C#N)C1CCN(C(=O)Cn2c(N3CC[C@@H](F)[C@H](N)C3)nc3cc(F)c(F)cc32)CC1 [Example 653] | UniProt:Q9Y210 | < 5.43 |
| CN(C)S(=O)(=O)c1ccc(Cn2c(N3CCC[C@@H](N)C3)nc3ccccc32)cc1 [Example 385] | UniProt:Q9Y210 | < 4.30 |
